biological target: SARS-COV-2 RBD extracellular domain expressed with a C-terminal mouse IgG2a (SARS-CoV-2); experiment: SPR Biacore, mAb captured via anti-hFc, 25 C
I'd be grateful if you could share measured koff for these entries.
Answers are plain numbers, in s⁻¹.

>  <BINDER>
mAb10998 (antibody, V domains shown) VH: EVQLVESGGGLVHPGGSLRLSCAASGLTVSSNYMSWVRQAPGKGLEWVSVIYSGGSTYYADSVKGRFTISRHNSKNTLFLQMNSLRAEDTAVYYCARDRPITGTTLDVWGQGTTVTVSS VL: DIQMTQSPSSLFASVGDRVTITCRASQSISSYLNWYQQKPGKAPKLLIYAASSLQSGVPSRFSGSGSGTDFTLTISSLQPEDFAFYYCQQTYSTPPITFGQGTRLEIKR

>  <UNITS_OF_MEASURE>
s⁻¹

>  <koff>
0.00358

$$$$

# batch: return koff for each of the 2 binders below
1. mAb10939 (antibody, V domains shown) VH: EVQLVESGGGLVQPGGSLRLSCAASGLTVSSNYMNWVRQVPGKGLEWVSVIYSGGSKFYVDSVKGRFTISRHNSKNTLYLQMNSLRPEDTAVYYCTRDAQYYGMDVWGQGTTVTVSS VL: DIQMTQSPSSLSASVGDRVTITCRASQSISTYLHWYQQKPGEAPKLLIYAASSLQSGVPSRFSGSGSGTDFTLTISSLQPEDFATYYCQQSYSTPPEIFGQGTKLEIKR
2. mAb10982 (antibody, V domains shown) VH: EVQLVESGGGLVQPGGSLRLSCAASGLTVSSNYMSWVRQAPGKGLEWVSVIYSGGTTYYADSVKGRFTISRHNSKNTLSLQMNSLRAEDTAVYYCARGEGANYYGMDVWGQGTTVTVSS VL: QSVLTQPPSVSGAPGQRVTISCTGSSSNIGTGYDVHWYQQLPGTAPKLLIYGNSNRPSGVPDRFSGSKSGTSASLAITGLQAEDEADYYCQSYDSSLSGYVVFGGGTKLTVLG

**Result**
1. 8.74e-05
2. 8.06e-05
